# tgt: human TLR7 (Homo sapiens)
# Sequence (Q9NYK1 27-1049): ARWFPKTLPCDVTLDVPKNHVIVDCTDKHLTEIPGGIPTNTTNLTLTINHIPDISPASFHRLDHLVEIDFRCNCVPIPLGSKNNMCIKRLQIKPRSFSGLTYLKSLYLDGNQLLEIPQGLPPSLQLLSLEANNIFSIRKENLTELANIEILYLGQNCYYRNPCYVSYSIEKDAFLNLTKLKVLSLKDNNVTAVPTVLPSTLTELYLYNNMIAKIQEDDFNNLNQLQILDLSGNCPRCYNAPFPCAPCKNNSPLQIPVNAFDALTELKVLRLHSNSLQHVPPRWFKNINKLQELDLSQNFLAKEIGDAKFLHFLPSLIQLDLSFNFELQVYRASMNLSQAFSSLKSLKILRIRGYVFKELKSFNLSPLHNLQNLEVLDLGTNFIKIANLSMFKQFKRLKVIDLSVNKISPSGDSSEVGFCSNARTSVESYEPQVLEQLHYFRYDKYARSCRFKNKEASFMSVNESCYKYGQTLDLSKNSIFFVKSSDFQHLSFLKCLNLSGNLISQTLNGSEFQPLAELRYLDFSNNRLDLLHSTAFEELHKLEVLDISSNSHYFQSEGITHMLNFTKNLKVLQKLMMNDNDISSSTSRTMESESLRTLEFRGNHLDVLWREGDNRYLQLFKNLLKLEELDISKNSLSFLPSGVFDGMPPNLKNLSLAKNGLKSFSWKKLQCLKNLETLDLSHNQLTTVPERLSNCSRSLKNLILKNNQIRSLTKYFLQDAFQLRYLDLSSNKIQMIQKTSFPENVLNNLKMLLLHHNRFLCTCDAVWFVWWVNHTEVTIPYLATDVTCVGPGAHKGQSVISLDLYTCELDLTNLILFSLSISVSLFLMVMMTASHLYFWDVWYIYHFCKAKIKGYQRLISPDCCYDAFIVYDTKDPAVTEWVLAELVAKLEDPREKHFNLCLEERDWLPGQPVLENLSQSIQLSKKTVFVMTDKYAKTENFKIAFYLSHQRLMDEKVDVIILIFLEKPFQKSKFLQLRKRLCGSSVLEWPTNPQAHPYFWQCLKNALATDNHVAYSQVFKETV
# assayRemarks: TLR7 inhibition reporter assay (HEK-Blue cells, SEAP reporter, gardiquimod stimulation)
# settings: HEK-Blue cells overexpressing human TLR7, SEAP reporter, gardiquimod 7.5 μM
measurementKind: IC50
Please make sure the unit comes right after the number.

Form: item Cc1c(-c2[nH]c3ccc(C4CN(CC5CCOC5)C4)cc3c2C(C)C)cn(C)c(=O)c1Cl (stereo not drawn) ; test system human TLR7 (Homo sapiens); IC50: 43 nM

Form: item COc1cc(-c2[nH]c3ccc(C4CCC(NC(=O)CN5CCS(=O)(=O)CC5)CC4)cc3c2C(C)C)cn2ncnc12 (stereo not drawn) ; test system human TLR7 (Homo sapiens); IC50: 3 nM

Form: item CNCCN1CCCC(c2ccc3[nH]c(-c4ccnc(C)c4)c(C(C)C)c3c2)C1 (stereo not drawn) [Example 256] ; test system human TLR7 (Homo sapiens); IC50: 226 nM

Form: item COc1cc(-c2[nH]c3ccc(C4CCC(NCC(F)(F)F)CC4)cc3c2C(C)C)cn2ncnc12 (single isomer, unassigned) [Example 108] ; test system human TLR7 (Homo sapiens); IC50: 7 nM

Form: item Cc1c(-c2[nH]c3ccc(C4CC(N(C)C)C4)cc3c2C(C)C)cn2ncnc2c1C (stereo not drawn) ; test system human TLR7 (Homo sapiens); IC50: 1 nM

Form: item CCN(CC)CC(=O)N1CCOC(c2ccc3[nH]c(-c4cc(OC)c5ncnn5c4)c(C(C)C)c3c2)C1 (stereo not drawn) ; test system human TLR7 (Homo sapiens); IC50: 0.71 nM

Form: item COc1cc(-c2[nH]c3ccc(C4CCC(N5CCNC(=O)C5)CC4)cc3c2C(C)C)cn2ncnc12 (stereo not drawn) [Example 71] ; test system human TLR7 (Homo sapiens); IC50: 0.68 nM

Form: item Cc1cc(-c2[nH]c3ccc(CCN4CCS(=O)(=O)CC4)cc3c2C(C)C)cc(C)n1 ; test system human TLR7 (Homo sapiens); IC50: 27 nM

Form: item COc1cc(-c2[nH]c3ccc(C4CNCCO4)cc3c2C(C)C)cn2ncnc12 (stereo not drawn) [Example 285] ; test system human TLR7 (Homo sapiens); IC50: 0.43 nM

Form: item Cc1cc(-c2[nH]c3ccc(CCN4CCCCC4)cc3c2C(C)C)cn(C)c1=O ; test system human TLR7 (Homo sapiens); IC50: 23 nM

Form: item CCN(C)C1CCC(c2ccc3[nH]c(-c4cc(C)c5ncnn5c4)c(C(C)C)c3c2)CC1 (stereo not drawn) [Example 63] ; test system human TLR7 (Homo sapiens); IC50: 0.81 nM

Form: item Cc1cc(-c2[nH]c3ccc(C4CN(CC(C)(C)O)CCO4)cc3c2C(C)C)cn2ncnc12 (stereo not drawn) [Example 355] ; test system human TLR7 (Homo sapiens); IC50: 5 nM

Form: item Cc1cc(-c2[nH]c3ccc(C4CCC(N5CCOCC5)CC4)cc3c2C(C)C)cn2ncnc12 (stereo not drawn) [Example 103] ; test system human TLR7 (Homo sapiens); IC50: 2 nM

Form: item COc1cc(-c2[nH]c3ccc(C4CCC(N5CCC[C@H]5C(N)=O)CC4)cc3c2C(C)C)cn2ncnc12 (stereo partly drawn) [Example 29] ; test system human TLR7 (Homo sapiens); IC50: 0.26 nM

Form: item COc1cc(-c2[nH]c3ccc(C4CC(N(C)C(=O)CN(C)C)C4)cc3c2C(C)C)cn2ncnc12 (stereo not drawn) [Example 585] ; test system human TLR7 (Homo sapiens); IC50: 0.55 nM
